Each item that follows carries a reported H, hydrophobicity, defined as % acetonitrile eluent in C18 HPLC column.
Assay: Hydrophobicity by C18 RP-HPLC elution
Type: physicochemical
Conditions: chromatographic, RP-HPLC C18 (Vydac), flow 2 ml/min, linear acetonitrile gradient 1%/min
Where a SMILES comes first, the peptide text is derived from it. [ ]: non-standard residue; d: D form. The star is where a group is joined. Palmitoyl = CCCCCCCCCCCCCCCC(=O)*; Myristoyl = CCCCCCCCCCCCCC(=O)*; Lauroyl = CCCCCCCCCCCC(=O)*; 12Ado = NCCCCCCCCCCCC(=O)O; Decanoyl = CCCCCCCCCC(=O)*; Octanoyl = CCCCCCCC(=O)*
Measurement Name: H, hydrophobicity, defined as % acetonitrile eluent in C18 HPLC column (%)

| Compound | Meas Value |
| --- | --- |
| CCCCCCCCCCCC(=O)N[C@@H](CCCCN)C(=O)N[C@@H](CCCCN)C(=O)NCCCCCCCCCCCC(=O)N[C@@H](CCCCN)C(N)=O [C12KKc12K] (Lauroyl-KK[12Ado]K-NH2) | 51 |
| CCCCCCCC(=O)N[C@@H](CCCCN)C(=O)N[C@@H](CCCCN)C(=O)NCCCCCCCCCCCC(=O)N[C@@H](CCCCN)C(N)=O [C8KKc12K] (Octanoyl-KK[12Ado]K-NH2) | 41 |
| CCCCCCCCCCCCCCCC(=O)N[C@@H](CCCCN)C(=O)N[C@@H](CCCCN)C(=O)NCCCCCCCCCCCC(=O)N[C@@H](CCCCN)C(N)=O [C16KKc12K] (Palmitoyl-KK[12Ado]K-NH2) | 62 |
| NCCCC[C@H](NC(=O)CCCCCCCCCCCNC(=O)[C@H](CCCCN)NC(=O)[C@@H](N)CCCCN)C(N)=O [H-KKc12K-NH2] (H-KK[12Ado]K-NH2) | 27 |
| CCCCCCCCCC(=O)N[C@@H](CCCCN)C(=O)N[C@@H](CCCCN)C(=O)NCCCCCCCCCCCC(=O)N[C@@H](CCCCN)C(N)=O [C10KKc12K] (Decanoyl-KK[12Ado]K-NH2) | 46 |
| CCCCCCCCCCCCCC(=O)N[C@@H](CCCCN)C(=O)N[C@@H](CCCCN)C(=O)NCCCCCCCCCCCC(=O)N[C@@H](CCCCN)C(N)=O [C14KKc12K] (Myristoyl-KK[12Ado]K-NH2) | 54 |
